# Tested on: Phytophthora infestans
# measurement-description: whole plant or invertebrate
# Assay type: in vivo
# condition-info: in Solanum lycopersicum, 168 h, read-out: Tomato Late Blight % Control
experimental-readout: pest or weed control at 250 ppm
The reply should consist of the numeric value with the unit placed after it.

In the examples that follow, each entry is paired with its recorded pest or weed control at 250 ppm.
ClCC1=NC2=S(O1)SN=C2Cl (stereo not drawn); 81%
ClC1=NSS2=C1N=C(CI)O2 (stereo not drawn); 62%
ClC1=NSS2=C1N=C(c1ccc(Cl)cc1)O2 (stereo not drawn); 98%
ClC1=NSS2=C1N=C(CSc1ccc(Cl)cc1)O2 (stereo not drawn); 81%
O=[N+]([O-])c1ccc(C2=NC3=S(O2)SN=C3Cl)cc1 (stereo not drawn); 90%

Go through the list and state pest or weed control at 250 ppm for each entry.
1. Oc1ccccc1C1=NC2=S(O1)SN=C2Cl (stereo not drawn)
2. ClC1=NSS2=C1N=C(c1ccc(Cl)c(Cl)c1)O2 (stereo not drawn)
3. ClC1=NSS2=C1N=C(CSCc1ccc(Cl)cc1)O2 (stereo not drawn)
4. ClC1=NSS2=C1N=C(c1ccccc1)O2 (stereo not drawn)
5. ClC1=NSS2=C1N=C(C1CC1)O2 (stereo not drawn)
6. ClC1=NSS2=C1N=C(C(Cl)=C(Cl)Cl)O2 (stereo not drawn)

## Result
27%
60%
93%
93%
97%
98%

The following molecules each have a reported value; give each one's pest or weed control at 250 ppm.
1. ClC1=NSS2=C1N=C(c1ccccc1I)O2 (stereo not drawn)
2. ClC1=NSS2=C1N=C(c1cccs1)O2 (stereo not drawn)
3. O=[N+]([O-])c1ccc(Cl)cc1C1=NC2=S(O1)SN=C2Cl (stereo not drawn)
4. Fc1ccccc1C1=NC2=S(O1)SN=C2Cl (stereo not drawn)

## Result
["75%", "89%", "80%", "93%"]
